target.or.system: T1, soluble extracellular domain of human PD-1 (human, UniProt Q15116 25-170)
T1 construct: extracellular domain
T1 sequence (Q15116 25-170): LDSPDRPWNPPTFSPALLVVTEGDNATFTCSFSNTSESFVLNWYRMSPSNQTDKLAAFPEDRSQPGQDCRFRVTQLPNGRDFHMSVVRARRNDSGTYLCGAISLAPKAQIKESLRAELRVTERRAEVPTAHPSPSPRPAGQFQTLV
assay.details: BLI (ForteBio Octet Red), antibody on the biosensor, soluble PD-1 ECD as analyte
Method: Biophysical characteristics of certain anti-PD-1 antibodies were analyzed by biolayer interferometry (BLI), using the ForteBio Octet Red system (Pall Corporation, Menlo Park, Calif.). The antibodies were immobilized on BLI biosensors and then incubated with the soluble extracellular domain of human PD-1. Using standard biophysics methods, apparent on-rates and off-rates were then inferred for PD-1 with anti-PD-1 antibodies.
observable: koff (s⁻¹)
I only need the number, in s⁻¹, no unit after it.

Recorded koff (binder 100413_E1VH9_100414_E1VK5 (antibody, V domains shown, Mouse variable regions; cloned into pFUSE-CHIg-mG1 (murine IgG1 Fc), expressed in HEK293) VH: EVQLQESGPSLVQPSQSLSITCTVSGFSLTSYGVHWVRQSPGKGLEWLGVIWRGGNTDYNAAFMSRLSITKDNSKSQVFFKMNSLQADDTAIYYCAASMIGGYWGQGTTLTVSS VL: DIVLTQTPLSLPVSLGDQASISCRSSQSIVHSNGNTYLEWYLQKPGQSPKLLIYKVSNRFSGVPDRFSGSGSGTNFTLKISRVEAEDLGVYYCFQGSHVPLTFGAGTKLELK ): 0.0299
